FYI, the data here is from paper PMC6018666.

TEST_SYSTEM: hnRNP A1 RRM2 (UniProt P09651 94-196)
Sequence (P09651 94-196): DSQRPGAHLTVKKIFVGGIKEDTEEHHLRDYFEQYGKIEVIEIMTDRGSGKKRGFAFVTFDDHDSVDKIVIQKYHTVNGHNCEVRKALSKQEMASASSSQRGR
EXPERIMENT_NOTES: ITC; N=1.09; text gives 6.9; ITC: 20 mM Na phosphate pH 6.5, 100 mM NaCl, no DTT, 25 C; EMSA: 100 mM KCl, 20% glycerol, 0.2 mM EDTA, 100 mM Tris pH 8.0, 0.5 mM DTT, 0.5 mM ATP, 20 mM creatine phosphate, 3.2 mM MgCl2, 4 C; footprint: 12 mM Tris-HCl pH 7.5, 48 mM NaCl, 1.2 mM MgCl2, 37 C
CONDITIONS_USED: protein: recombinant; tags: His tag removed by TEV; single strand
MEASUREMENT_LABEL: pKd
Expect pKd as a plain number equal to -log10 of the molar concentration.

In plain terms, AGUAGAU (ssRNA) [7-mer] has a documented pKd of 5.17
